Assay: Selectivity index, ratio of maximal tolerant concentration for mouse ScN2a cells to EC50 for scrapie prion protein RML infected mouse ScN2a cells
Outcome: True for Selectivity Index of at least 7; False for anything lower.

Request: Hello, I need to know if COc1ccc2nc3cc(Cl)ccc3c(Nc3ccccc3N(C)C)c2c1 has measured Selectivity Index not below 7. Thanks!
Result: True

Request: Hello, I need to know if CCN(CC)CCCC(C)Nc1c2ccc(Cl)cc2nc2ccc(OC)cc12 (stereo unspecified) has measured Selectivity Index not below 7. Thanks!
Result: True

Request: Hello, I need to know if COc1ccc2nc3cc(Cl)ccc3c(Nc3cccc(N4CCOCC4)c3)c2c1 has measured Selectivity Index not below 7. Thanks!
Result: False

Request: Hello, I need to know if CCN(CC)CCNc1c2ccc(Cl)cc2nc2ccc(OC)cc12 has measured Selectivity Index not below 7. Thanks!
Result: True

Request: Hello, I need to know if COc1ccc2nc3cc(Cl)ccc3c(Nc3cccc(N(C)C)c3)c2c1 has measured Selectivity Index not below 7. Thanks!
Result: False

Request: Hello, I need to know if CCN(CC)c1ccc(Nc2c3ccccc3nc3ccccc23)cc1 has measured Selectivity Index not below 7. Thanks!
Result: False

Request: Hello, I need to know if COc1ccc2nc3cc(Cl)ccc3c(N)c2c1 has measured Selectivity Index not below 7. Thanks!
Result: True

Request: Hello, I need to know if COc1ccc2nc3cc(Cl)ccc3c(Nc3ccc(N4CCN(C)CC4)cc3)c2c1 has measured Selectivity Index not below 7. Thanks!
Result: True

Request: Hello, I need to know if COc1ccc2nc3cc(Cl)ccc3c(Nc3ccc(N(C)C)cc3)c2c1 has measured Selectivity Index not below 7. Thanks!
Result: False

Request: Hello, I need to know if CCN(CC)c1cccc(Nc2c3ccc(Cl)cc3nc3ccc(OC)cc23)c1 has measured Selectivity Index not below 7. Thanks!
Result: False
